TEST_DESCRIPTION: Oral delivery of rhGH with delivery agent compound in rats; serum rhGH by immunoassay
Format: in vivo, rat
RUN_CONDITIONS: male Sprague-Dawley rats, compound 200 mg/kg, rhGH 3 mg/kg, 1 ml/kg, pooled samples (except compound 1)
MEASUREMENT_LABEL: Mean Peak Serum [rhGH] (ng/mL)

Known Mean Peak Serum [rhGH] results, listed for orientation:
{"columns": ["GIVEN_SMILES", "Mean Peak Serum [rhGH], ng/mL"],
 "data": [
  ["COc1ccc(-c2nnc(CCCCC(=O)O)o2)c(O)c1", 14.25],
  ["O=C(O)CCCCCCc1nnc(-c2cc(Cl)cc(Cl)c2O)o1", 0]
]}

(P) Cc1nnc(CCCCCCC(=O)O)o1
(Q) O=C(O)CCCCCCc1nnc(-c2cc(Cl)ccc2O)o1
Query block: Which shows the larger Mean Peak Serum [rhGH] value: P or Q ? Please indicate the selected item by its label.
Result block: Q
(Q: 14.64 ng/mL, P: 0 ng/mL)
